The origin of these recorded values is ChEMBL document CHEMBL1151706.

# Tested on: Bacillus subtilis
# experiment-description: Antibacterial activity against Bacillus subtilis ATCC 6051 by dilution assay
# Format: functional
# MIC values compiled below
property-label: MIC (µM)

1) CCOc1nc(S(=O)(=O)c2ccccc2)cc(O)c1F: 1680
2) CC1(C)S[C@@H]2[C@H](NC(=O)[C@H](N)c3ccccc3)C(=O)N2[C@H]1C(=O)O: 11
3) Cc1ccc(Sc2c(O)cc(S(=O)(=O)c3ccc(C)cc3)nc2C)cc1: 160
4) CCOc1nc(S(=O)(=O)c2ccccc2)cc(O)c1Cl: 1590
5) Cc1ccc(S(=O)(=O)c2cc(O)c(Sc3ccccc3)c(C)n2)cc1: 340
6) CCOc1nc(S(=O)(=O)c2ccc(C)cc2)cc(O)c1Cl: 1520
7) Cc1cccc(Sc2c(O)cc(S(=O)(=O)c3ccccc3)nc2C)c1: 330
